Molecular target: TRPM2 (Homo sapiens, UniProt O94759)
Sequence (O94759 whole entry): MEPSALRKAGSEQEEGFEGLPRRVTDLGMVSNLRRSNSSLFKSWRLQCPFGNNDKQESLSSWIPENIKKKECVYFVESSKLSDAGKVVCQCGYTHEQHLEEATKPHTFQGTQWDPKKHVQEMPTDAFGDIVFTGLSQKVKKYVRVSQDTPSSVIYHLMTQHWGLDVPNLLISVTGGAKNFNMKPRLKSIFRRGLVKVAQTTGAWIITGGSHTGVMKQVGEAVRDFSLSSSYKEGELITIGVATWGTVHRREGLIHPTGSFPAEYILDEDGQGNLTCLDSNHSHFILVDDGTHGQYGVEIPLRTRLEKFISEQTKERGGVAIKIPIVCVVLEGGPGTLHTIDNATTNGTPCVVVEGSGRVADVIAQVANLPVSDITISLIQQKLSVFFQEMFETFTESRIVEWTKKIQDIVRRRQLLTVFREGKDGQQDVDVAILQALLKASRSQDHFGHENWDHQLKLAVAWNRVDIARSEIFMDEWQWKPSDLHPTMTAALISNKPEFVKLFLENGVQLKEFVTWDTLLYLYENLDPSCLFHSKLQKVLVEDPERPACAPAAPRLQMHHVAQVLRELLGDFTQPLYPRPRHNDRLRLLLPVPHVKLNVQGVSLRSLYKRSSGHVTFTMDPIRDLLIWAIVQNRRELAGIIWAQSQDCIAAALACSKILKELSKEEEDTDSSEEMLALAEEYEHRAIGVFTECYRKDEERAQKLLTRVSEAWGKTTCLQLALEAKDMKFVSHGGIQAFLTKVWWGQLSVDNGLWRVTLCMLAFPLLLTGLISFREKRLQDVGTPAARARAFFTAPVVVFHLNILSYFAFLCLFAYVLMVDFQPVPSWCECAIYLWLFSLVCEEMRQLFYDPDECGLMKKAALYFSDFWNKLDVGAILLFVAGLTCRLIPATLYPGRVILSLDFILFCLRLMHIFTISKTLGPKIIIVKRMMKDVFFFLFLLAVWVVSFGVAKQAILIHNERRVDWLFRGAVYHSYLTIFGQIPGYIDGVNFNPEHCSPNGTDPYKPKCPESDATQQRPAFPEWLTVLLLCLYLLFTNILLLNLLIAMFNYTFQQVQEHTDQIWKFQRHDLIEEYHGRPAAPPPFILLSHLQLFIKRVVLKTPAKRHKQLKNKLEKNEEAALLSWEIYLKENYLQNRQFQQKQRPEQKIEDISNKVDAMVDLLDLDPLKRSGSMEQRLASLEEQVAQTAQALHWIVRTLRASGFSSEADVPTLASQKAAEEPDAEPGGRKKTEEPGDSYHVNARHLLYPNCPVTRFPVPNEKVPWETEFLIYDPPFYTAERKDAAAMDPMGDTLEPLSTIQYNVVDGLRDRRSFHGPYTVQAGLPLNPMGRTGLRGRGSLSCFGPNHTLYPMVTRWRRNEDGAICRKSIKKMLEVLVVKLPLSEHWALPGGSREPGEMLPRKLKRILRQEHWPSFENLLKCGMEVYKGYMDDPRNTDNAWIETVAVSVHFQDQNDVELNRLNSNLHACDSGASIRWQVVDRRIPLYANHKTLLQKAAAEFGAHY
Experiment: whole-cell patch clamp, HEK293 expressing hTRPM2
Type: cell-based
Hi there, I'd appreciate the recorded EC50 for every entry that follows.
Give bare numbers, in µM.

Here are 2 compounds. What values of EC50 were reported for them?
1. Nc1ncnc2c1ncn2[C@@H]1O[C@H](COP(=O)(O)OP(=O)(O)OC[C@H]2OC(O)[C@H](O)[C@@H]2O)[C@@H](O)[C@H]1OP(=O)(O)O (some centres unmarked)
2. Nc1ncnc2c1ncn2[C@@H]1O[C@H](COP(=O)(O)OP(=O)(O)OC[C@H]2OC(O)[C@H](O)[C@@H]2O)C[C@H]1O (some centres unmarked)

1: 110; 2: 46

----------
Biological target: UniProtKB O94759
Assay: whole-cell patch clamp
Type: cell-based
Endpoint: pEC50
Answers are plain numbers, as −log10 of the molar value.

Can you look up the measured pEC50 of Nc1ncnc2c1ncn2[C@@H]1O[C@H](COP(=O)(O)OP(=O)(O)OC[C@H]2OC(O)[C@H](O)[C@@H]2O)[C@@H](O)[C@H]1O (stereo partly shown) for me?
4.55

meta.source: paper PMC5563452
